Test system: PPARg:RXRa 30nM:10nM, anti-RXR (NR concentration 30 nM, RXRa partner concentration 10 nM)
protocol-text: PBM binding z-score (relative to random genomic background probes); higher = stronger binding; sequences stand for … in GC…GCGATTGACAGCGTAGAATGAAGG
This listing pairs sequences with measured PBM binding z-score.
Give the value as a plain number.

For orientation, consider the following solved cases.
>>> df
                       sequence_chain  recorded_result
0  CCTACTGGGCCACGAAAGGTCATTGAATCAGTGA             2.28
1  CAATCTAGGTCAAGAGGTCAAAGTCCGCTTCCCG             7.43
2  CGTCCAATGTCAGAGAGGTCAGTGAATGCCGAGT            0.224
3  CGTCCAAGGTCAGAGAGGTCAATGAATGCCGAGT             1.52
4  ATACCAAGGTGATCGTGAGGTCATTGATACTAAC            0.601
5  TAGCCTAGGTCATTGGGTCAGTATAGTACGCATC             1.89
6  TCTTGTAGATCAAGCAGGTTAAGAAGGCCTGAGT             2.45
7  TAGCCTAGGTAATTGGGCCAGTATAGTACGCATC           -0.205
8  ATCGAAAGGTCGACGAGGTGAGTCTACACCGTTT            0.846
9  CGAACTAGGTCAAGGACAGAGAATCTCCGCACGC             3.62

Report measured PBM binding z-score; entry is `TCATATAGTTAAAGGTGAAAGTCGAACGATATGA`
3.96

Report measured PBM binding z-score; entry is `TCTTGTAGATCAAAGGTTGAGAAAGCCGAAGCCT`
5.78

Report measured PBM binding z-score; entry is `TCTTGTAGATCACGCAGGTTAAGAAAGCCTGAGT`
2.72

Report measured PBM binding z-score; entry is `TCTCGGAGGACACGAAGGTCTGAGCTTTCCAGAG`
1.91

Report measured PBM binding z-score; entry is `ATCTCTAGGTAAACATAGTTCAGTGAATGCAAAT`
0.499

====

System: PPARg:RXRa 30nM:10nM, anti-RXR (NR concentration 30 nM, RXRa partner concentration 10 nM)
protocol-text: PBM binding z-score (relative to random genomic background probes); higher = stronger binding; sequences stand for … in GC…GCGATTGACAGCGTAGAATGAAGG
assay-metric: PBM binding z-score
Give the value as a plain number.

Report PBM binding z-score from PPARg:RXRa 30nM:10nM, anti-RXR (NR concentration 30 nM, RXRa partner concentration 10 nM) testing of `TCATATAGGTAAACAGGTGAAAGCCCGTAAGTTA`
3.79

Report PBM binding z-score from PPARg:RXRa 30nM:10nM, anti-RXR (NR concentration 30 nM, RXRa partner concentration 10 nM) testing of `AGAATGAGGTTTTTAAGATCAGGGAATTGCGGTC`
0.119

Report PBM binding z-score from PPARg:RXRa 30nM:10nM, anti-RXR (NR concentration 30 nM, RXRa partner concentration 10 nM) testing of `TCTGCTAGGTCAACGACGGTCAGCTAATCTGCTA`
1.76

====

Test system: THRa homodimer (NR concentration 90 nM)
protocol-text: PBM binding z-score (relative to random genomic background probes); higher = stronger binding; sequences stand for … in GC…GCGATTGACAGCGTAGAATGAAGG
assay-metric: PBM binding z-score
Give the value as a plain number.

>>> df
                       sequence_chain  recorded_result
0  ACTAGCAGGCCAAGTATGGGTCACTCAAACAAAG            -0.26
1  ATCTCGAGGTAACAAGTTCAGTGAAAGAGAGGAC            0.969
2  ATCTCTAGGGAACCAAGTTCAGTGAATGCCGAAC           -0.301
3  CCTTGCAGGCCAGGGTCACTCAAGCATTTCGCTT             1.07
4  TCGAGTAGGTTAGTCGGAGCATTCAGCCAACATA           -0.781

We next turn to a different sequence, shown below.
Report measured PBM binding z-score; entry is `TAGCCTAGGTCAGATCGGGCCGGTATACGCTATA`
0.09

====

Tested on: LXRb:RXRa (NR concentration 270 nM, RXRa partner concentration 90 nM)
protocol-text: PBM binding z-score (relative to random genomic background probes); higher = stronger binding; sequences stand for … in GC…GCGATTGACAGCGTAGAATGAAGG
This listing pairs sequences with measured PBM binding z-score.
Give the value as a plain number.

Report measured PBM binding z-score; entry is `ATACCAAGGTGATCGTGAGGTCGTTGATACTAAC`
1.5

Report measured PBM binding z-score; entry is `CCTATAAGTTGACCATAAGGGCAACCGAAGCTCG`
0.379

Report measured PBM binding z-score; entry is `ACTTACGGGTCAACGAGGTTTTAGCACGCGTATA`
3.9

Report measured PBM binding z-score; entry is `TAGCCCAGGTCATGCGGGCCAGTATAGTGTCGGC`
1.9

Report measured PBM binding z-score; entry is `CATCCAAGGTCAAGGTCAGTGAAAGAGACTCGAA`
5.1

====

System: RARa:RXR (NR concentration 270 nM, RXRa partner concentration 90 nM)
protocol-text: PBM binding z-score (relative to random genomic background probes); higher = stronger binding; sequences stand for … in GC…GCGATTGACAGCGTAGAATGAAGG
This listing pairs sequences with measured PBM binding z-score.
Give the value as a plain number.

For orientation, consider the following solved cases.
>>> df
                       sequence_chain  recorded_result
0  CCGACTGGGGCAAGGTTATCATAACGCACAGCCA            0.986
1  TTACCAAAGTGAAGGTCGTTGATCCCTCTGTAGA                1
2  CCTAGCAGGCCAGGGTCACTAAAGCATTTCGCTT             2.96
3  CGAACTAGGTCAGAACAGGACAGTGAGGGATGAT             1.06
4  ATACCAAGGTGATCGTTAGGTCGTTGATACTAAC             1.25
5  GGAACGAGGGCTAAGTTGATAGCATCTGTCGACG          -0.0692

Report measured PBM binding z-score; entry is `AGAACGAGGGCACGCTGAGTTGACAGCAGAGTAG`
1.24

Report measured PBM binding z-score; entry is `AGAATGTGGTTATTAAGATCAGGGAATTGCGGTC`
0.105

Report measured PBM binding z-score; entry is `ATCTCTAGGTAATCAAGTTCAGTGAATGCCGAAC`
0.799

Report measured PBM binding z-score; entry is `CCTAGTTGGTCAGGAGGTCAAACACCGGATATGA`
5.06

Report measured PBM binding z-score; entry is `TCTGCAAGGTCAGTTGGTCAGCTAACGAGCTGCC`
2.67

Report measured PBM binding z-score; entry is `TCATATAGATAAATGCTAGGTGAAAGTCCGATCT`
0.494

Report measured PBM binding z-score; entry is `TCTTGTAGATCAAAGGTTATGAAAGCCGAAGCCT`
3.07

Report measured PBM binding z-score; entry is `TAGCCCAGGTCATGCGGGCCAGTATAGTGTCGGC`
3.04

Report measured PBM binding z-score; entry is `AGAACAAGGGCAATGAGTTGATAGCACGGGTGGC`
0.000148

Report measured PBM binding z-score; entry is `TAGCCTAGGTCATTGGGCCCGTATAGTACGCATC`
2

Report measured PBM binding z-score; entry is `TGTCAAAGTTCAAAGTTAACGTAAGTATCCACAC`
4.46

Report measured PBM binding z-score; entry is `TCGTATAGGTAATACAGGTGAAAGTCGGCATCTA`
0.746

Report measured PBM binding z-score; entry is `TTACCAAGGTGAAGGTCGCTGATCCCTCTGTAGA`
1.56

Report measured PBM binding z-score; entry is `GCAGCCAGGTGAAACGCAGGTAACTCAGGGTGGC`
0.121

Report measured PBM binding z-score; entry is `CGTCCAAGGTCAAAGGGCAGTGAAGAGATGACGG`
6.27

Report measured PBM binding z-score; entry is `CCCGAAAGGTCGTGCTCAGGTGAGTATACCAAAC`
4.35

Report measured PBM binding z-score; entry is `TCTACAGGGTCAAAGGCCAGAGTACGAATGTCGA`
5.76

Report measured PBM binding z-score; entry is `TTACCAAGGTGAGCTAAGGTCGTTGATCCAACTC`
2.41

Report measured PBM binding z-score; entry is `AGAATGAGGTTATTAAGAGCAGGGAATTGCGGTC`
1.42

Report measured PBM binding z-score; entry is `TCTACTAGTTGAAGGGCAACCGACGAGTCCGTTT`
0.275

Report measured PBM binding z-score; entry is `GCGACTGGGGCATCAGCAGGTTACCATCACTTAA`
0.272

Hey, just so you know, these numbers are from the supplement of paper PMC6555819.
